meta.source: patent US9765039B2

# assayedSystem: Brd4 bromodomain 1 (Homo sapiens, UniProt O60885)
# Construct: made in house; host or cells: E. coli BL21(DE3)
# assayDetails: Inhibition of tetra-acetylated histone H4 binding to BET bromodomains (TR-FRET)
# Parameters: key: Active: Compounds with an IC50 value less than 30 μM were deemed to be active.; Not Active: Compounds with an IC50 value less than 30 μM were deemed to be active
# statedConditions: first bromodomain of Brd4, tetra-acetylated histone H4 peptide
resultType: FRET activity (IC50 < 30 μM)

// solved cases for FRET activity (IC50 < 30 μM) follow
molecule: COc1cc(OC)c2c(=O)[nH]c(-c3ccc(OCCN(C)C)c(-c4ccc([S+](C)[O-])cc4)c3)nc2c1 (stereo not shown)
assayedSystem: Brd4 bromodomain 1 (Homo sapiens, UniProt O60885)
FRET activity (IC50 < 30 μM): Active
//
molecule: COc1cc(OC)c2c(=O)[nH]c(-c3ccc(OCCN4CCCC4)c(-c4ccc(S(C)(=O)=O)cc4)n3)nc2c1.Cl
assayedSystem: Brd4 bromodomain 1 (Homo sapiens, UniProt O60885)
FRET activity (IC50 < 30 μM): Active
//
molecule: COc1cc(OC)c2c(=O)[nH]c(-c3ccc(OCCO)c(-c4ccc([S+](C)[O-])cc4)c3)nc2c1 (stereo not shown)
assayedSystem: Brd4 bromodomain 1 (Homo sapiens, UniProt O60885)
FRET activity (IC50 < 30 μM): Active
//
molecule: COc1cc(OC)c2c(=O)[nH]c(-c3ccc(OCCO)c(-c4ccc(S(C)(=O)=O)cc4)n3)nc2c1
assayedSystem: Brd4 bromodomain 1 (Homo sapiens, UniProt O60885)
FRET activity (IC50 < 30 μM): Active
//
molecule: COc1cccc2nc(-c3ccc(OCCNC(C)C)c(-c4ccc(S(C)(=O)=O)cc4)n3)[nH]c(=O)c12
assayedSystem: Brd4 bromodomain 1 (Homo sapiens, UniProt O60885)
FRET activity (IC50 < 30 μM): Active

Query: Which value of FRET activity (IC50 < 30 μM) has been reported for COc1cc(OC)c2c(=O)[nH]c(-c3cc(-c4ccc([S+](C)[O-])cc4)c4[nH]ccc4c3)nc2c1 (stereo not shown) in the records?
Response: Active

Query: Which value of FRET activity (IC50 < 30 μM) has been reported for `COc1cc(OC)c2c(=O)[nH]c(-c3ccc(OCCO)c(-c4ccc(S(C)(=O)=O)cc4C)n3)nc2c1` in the records?
Response: Active
